Tested on: corn borers
Settings: concentration 600 mg/kg
Readout type: Corn borer Mortality (%)

{"columns": ["Compound", "Experimental value"],
 "data": [
  ["C[C@@H]1N[C@H](C(=O)NCCO)Cc2c1[nH]c1ccccc21 [Ib-18]", 5],
  ["C[C@@H]1N[C@H](C(=O)NCC2CCCO2)Cc2c1[nH]c1ccccc21 (stereo partly drawn) [Ib-20]", 60],
  ["C[C@@H]1N[C@H](C(=O)NNC(=O)c2ccncc2)Cc2c1[nH]c1ccccc21 [Id-3]", 25]
]}

----------
System: Rhizoctonia solani
Assay: Fungicidal (bactericidal) activity in vitro, PDA colony diameter
Format: cell-based
Conditions: Rhizoctonia solani, 96 h; 50 mg/kg
Item-by-item account of inhibition of growth at 50 mg/kg

{"columns": ["Smiles text", "inhibition of growth at 50 mg/kg"],
 "data": [
  ["Cc1nccc2c1[nH]c1cc(OC(=O)NC(C)C)ccc12", "6.6%"],
  ["C[C@@H]1N[C@H](C(=O)NC2CCCCC2)Cc2c1[nH]c1ccccc21", "50%"],
  ["C[C@@H]1N[C@H](C(=O)NCN(C)C)Cc2c1[nH]c1ccccc21", "26.3%"],
  ["Cc1nccc2c1[nH]c1c([N+](=O)[O-])cccc12", "42.1%"],
  ["Cc1nccc2c1[nH]c1cc(OC(=O)[C@@H](NC(=O)OCc3ccccc3)C(C)C)ccc12", "52.6%"],
  ["C[C@@H]1N[C@H](C(=O)N/N=C/c2ccccc2)Cc2c1[nH]c1ccccc21", "48.6%"],
  ["Cc1nccc2c1[nH]c1cc(O)ccc12", "50%"],
  ["C[C@@H]1N[C@H](C(=O)O)Cc2c1[nH]c1ccccc21", "26.3%"],
  ["N#Cc1c(Cl)c(Cl)c(Cl)c(C#N)c1Cl", "100%"],
  ["O=C(O)[C@@H]1Cc2c([nH]c3ccccc23)[C@H](c2ccccc2)N1", "36.8%"]
]}

----------
Tested on: Rhizoctonia solani
Test: Fungicidal (bactericidal) activity in vitro, PDA colony diameter
Assay type: cell-based
Conditions: 50 mg/kg
molecules and their reported Bactericidal activity (%) Rhizoctonia solani
Readout type: Bactericidal activity (%) Rhizoctonia solani

{"columns": ["Molecule", "Experimental value"],
 "data": [
  ["C[C@@H]1N[C@H](C(=O)NNC(=O)C(C)(C)C)Cc2c1[nH]c1ccccc21", "5.6%"],
  ["C[C@@H]1N[C@H](C(=O)NN=Cc2ccc([N+](=O)[O-])cc2)Cc2c1[nH]c1ccccc21", "59.2%"],
  ["C[C@@H]1N[C@H](C(=O)NCCO)Cc2c1[nH]c1ccccc21", "35.7%"],
  ["Cc1nnsc1C(=O)NNC(=O)[C@@H]1Cc2c([nH]c3ccccc23)[C@H](C)N1", "0.0%"],
  ["C[C@@H]1N[C@H](C(=O)NN=Cc2ccc(N(C)C)cc2)Cc2c1[nH]c1ccccc21", "63.2%"],
  ["CC(=NNC(=O)[C@@H]1Cc2c([nH]c3ccccc23)[C@H](C)N1)C(C)(C)C", "8.3%"],
  ["Cc1nccc2c1[nH]c1cc(OC(=O)C(C)(C)C)ccc12", "42.9%"],
  ["Cc1nc(/C=C/C(=O)O)cc2c1[nH]c1ccccc12", "39.5%"],
  ["CC(=NNC(=O)[C@@H]1Cc2c([nH]c3ccccc23)[C@H](C)N1)c1ccccc1", "15.3%"],
  ["O=C(O)[C@@H]1Cc2c([nH]c3ccccc23)[C@H](c2cccnc2)N1", "32.9%"],
  ["CCOC(=O)[C@@H]1Cc2c([nH]c3ccccc23)[C@H](CC)N1", "21.4%"],
  ["CCCC=NNC(=O)[C@@H]1Cc2c([nH]c3ccccc23)[C@H](C)N1", "6.6%"],
  ["C[C@@H]1N[C@H](C(=O)NN=Cc2ccc(C(C)(C)C)cc2)Cc2c1[nH]c1ccccc21", "88.2%"],
  ["C[C@@H]1N[C@H](C(=O)NNC(=O)c2ccccc2)Cc2c1[nH]c1ccccc21", "5.6%"],
  ["C[C@@H]1N[C@H](C(=O)NN=Cc2ccc(Cl)c(Cl)c2)Cc2c1[nH]c1ccccc21", "62.5%"],
  ["CCOC(=O)[C@H]1Cc2c([nH]c3ccccc23)[C@@H](C)N1", "42.1%"],
  ["C[C@@H]1N[C@H](C(=O)NN=Cc2ccc[nH]2)Cc2c1[nH]c1ccccc21", "32.9%"],
  ["CC(=O)Oc1ccc2c(c1)[nH]c1c(C)nccc12", "0.0%"],
  ["C[C@@H]1N[C@H](C(=O)NN=Cc2ccc3c(c2)OCCO3)Cc2c1[nH]c1ccccc21", "44.4%"],
  ["CCOC(=O)[C@@H]1Cc2c([nH]c3ccccc23)CN1", "42.9%"],
  ["C[C@@H]1N[C@H](C(=O)NNC(=O)C2CCCC2)Cc2c1[nH]c1ccccc21", "1.4%"],
  ["C[C@@H]1N[C@H](C(=O)NN=Cc2ccccn2)Cc2c1[nH]c1ccccc21", "21.1%"],
  ["Cc1nccc2c1[nH]c1cc(OC(=O)N(C)C)ccc12", "46.1%"],
  ["CCOC(=O)C1Cc2c([nH]c3ccccc23)C(C)=N1 (centres unmarked)", "59.2%"],
  ["CCCCCCCC=NNC(=O)[C@@H]1Cc2c([nH]c3ccccc23)[C@H](C)N1", "22.2%"],
  ["COc1cccc(C=NNC(=O)[C@@H]2Cc3c([nH]c4ccccc34)[C@H](C)N2)c1", "68.4%"]
]}
